Cited source: patent US20250206724A1

# target-or-test-system: CDK11A (Homo sapiens)
# Sequence (Q9UQ88 346-783): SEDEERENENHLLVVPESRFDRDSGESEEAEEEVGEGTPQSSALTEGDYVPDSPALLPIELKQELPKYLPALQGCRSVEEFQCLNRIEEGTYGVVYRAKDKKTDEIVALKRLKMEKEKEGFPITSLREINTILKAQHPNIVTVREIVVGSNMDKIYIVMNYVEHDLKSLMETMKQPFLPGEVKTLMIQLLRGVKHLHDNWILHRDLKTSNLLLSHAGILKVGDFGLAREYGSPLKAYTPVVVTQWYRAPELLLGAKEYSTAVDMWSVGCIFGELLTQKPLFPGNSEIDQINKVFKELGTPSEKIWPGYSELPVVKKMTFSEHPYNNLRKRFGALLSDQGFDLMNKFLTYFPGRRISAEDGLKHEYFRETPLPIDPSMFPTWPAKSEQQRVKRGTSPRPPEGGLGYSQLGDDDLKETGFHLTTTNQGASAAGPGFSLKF
# details: displacement of SNS-032-Atto590 probe (0.002 μM) from CDK11A-p58 (0.032 uM), fluorescence polarization
Structures can show the parent of a compound that is named as a salt.
endpoint: log10 DC50 (log10 of the value in nM)
Kindly note that the scale is log10 and the underlying DC50 is in nM.

GET /values?item= O=C(Nc1n[nH]c2ccc(-c3ccc(F)cc3F)cc12)[C@@H]1CCCNC1 [cpd 30, hydrochloride] &system= CDK11A (Homo sapiens) returns log10 DC50: 1.58

GET /values?item= CN1CCC(C(=O)Nc2n[nH]c3ccc(-c4cccc(F)c4)cc23)CC1 [cpd 101, hydrochloride] &system= CDK11A (Homo sapiens) returns log10 DC50: 2.84

GET /values?item= COC(=O)c1ccc(Cl)c(-c2ccc3[nH]nc(NC(=O)[C@@H]4CCCNC4)c3c2)c1 [cpd 29, hydrochloride] &system= CDK11A (Homo sapiens) returns log10 DC50: 1.38

GET /values?item= CN1CCC(C(=O)Nc2n[nH]c3ccc(-c4ccc(S(N)(=O)=O)cc4)cc23)CC1 [cpd 92, hydrochloride] &system= CDK11A (Homo sapiens) returns log10 DC50: 2.90

GET /values?item= O=C(Nc1n[nH]c2ccc(-c3cc(F)ccc3C(F)(F)F)cc12)[C@@H]1CCCNC1 [cpd 46, hydrochloride] &system= CDK11A (Homo sapiens) returns log10 DC50: 1.57

GET /values?item= N#Cc1ccc(Cl)c(-c2ccc3[nH]nc(NC(=O)C4CCC5(CCCCC5)NC4)c3c2)c1 (stereo not shown) [compound 186, hydrochloride] &system= CDK11A (Homo sapiens) returns log10 DC50: 1.81

GET /values?item= CN1CCC(C(=O)Nc2n[nH]c3ccc(-c4ccc(N)cc4Cl)cc23)CC1 [cpd 107, dihydrochloride] &system= CDK11A (Homo sapiens) returns log10 DC50: 2.30

GET /values?item= N#Cc1ccc(Cl)c(-c2ccc3[nH]nc(NC(=O)[C@@H]4CCNC4)c3c2)c1 [compound 176, hydrochloride] &system= CDK11A (Homo sapiens) returns log10 DC50: 1.26

GET /values?item= CN1CCC(C(=O)Nc2n[nH]c3ccc(-c4ccccc4F)cc23)CC1 [cpd 78, hydrochloride] &system= CDK11A (Homo sapiens) returns log10 DC50: 2.49

GET /values?item= CN1CCC(C(=O)Nc2n[nH]c3ccc(-c4ccccc4C(F)(F)F)cc23)CC1 [cpd 104, hydrochloride] &system= CDK11A (Homo sapiens) returns log10 DC50: 2.52

----------
# target-or-test-system: CDK11A (Homo sapiens)
# details: displacement of SNS-032-Atto590 probe (0.002 μM) from CDK11A-p58 (0.032 uM), fluorescence polarization
Counter-ions that a name gives are not always drawn.
The label t is reserved for DC50 strictly under 60 nM; f covers values equal to or above it.

Example entries begin here.
compound	label-class
Nc1ccc(-c2ccc3[nH]nc(NC(=O)[C@@H]4CCCNC4)c3c2)c(Cl)c1 [cpd 5, dihydrochloride]	t
O=C(Nc1n[nH]c2ccc(-c3cc(Cl)ccc3Cl)cc12)[C@@H]1CCCNC1 [cpd 13, hydrochloride]	t
N#Cc1ccc(Cl)c(-c2ccc3[nH]nc(NC(=O)C4CC(NC5CCCC5)C4)c3c2)c1 (stereo not drawn) [compound 154, hydrochloride]	t
Nc1ccc(Cl)c(-c2ccc3[nH]nc(NC(=O)[C@@H]4CCCNC4)c3c2)c1 [cpd 34, dihydrochloride]	t
CN1CCC(C(=O)Nc2n[nH]c3ccc(-c4ccccc4C#N)cc23)CC1	f
CCCCN1CCC(C(=O)Nc2n[nH]c3ccc(-c4c(F)cccc4Cl)cc23)CC1 [cpd 65, hydrochloride]	f
O=C(Nc1n[nH]c2ccc(-c3c(Cl)cccc3Cl)cc12)C1CCN(C2CC2)CC1 [compound 158, hydrochloride]	f
CN(C)C1CC(C(=O)Nc2n[nH]c3ccc(-c4cc(C#N)ccc4Cl)cc23)C1 (stereo not drawn) [compound 147, hydrochloride]	f

# input for lookup
Task: Item NCCCN1CCC(C(=O)Nc2n[nH]c3ccc(-c4c(F)cccc4Cl)cc23)CC1 [cpd 66, dihydrochloride] : DC50 beneath 60 nM, strictly?
Output: t

----------
# target-or-test-system: CDK11A (Homo sapiens);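 further: compound preincubated 30 min with CDK11A-p58, then probe added and polarization (mP) read 15 min later, 0% displacement is probe plus enzyme, 100% is probe alone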
# details: displacement of SNS-032-Atto590 probe (0.002 μM) from CDK11A-p58 (0.032 uM), fluorescence polarization
Counter-ions that a name gives are not always drawn.
List of DC50 values.
Kindly provide the numeric value in nM only, without the unit symbol.

Please review the following examples before continuing.
compound	units-of-measure	measured
O=C(Nc1n[nH]c2ccc(-c3ccc(O)cc3Cl)cc12)C1CCCNC1 (stereo not drawn) [cpd 3, hydrochloride]	nM	51
CCCN1CCC(C(=O)Nc2n[nH]c3ccc(-c4cc(C#N)ccc4Cl)cc23)CC1 [compound 141, hydrochloride]	nM	79
C[C@H]1CC[C@@H](C(=O)Nc2n[nH]c3ccc(-c4c(Cl)cccc4Cl)cc23)CN1 [compound 177, trifluoroacetate]	nM	54
CN1CCC(C(=O)Nc2n[nH]c3ccc(-c4cc(C(N)=O)ccc4Cl)cc23)CC1 [cpd 117, trifluoroacetate]	nM	153
Cc1ccc(-c2ccc3[nH]nc(NC(=O)[C@@H]4CCCNC4)c3c2)c(Cl)c1 [cpd 8, hydrochloride]	nM	125
CCCCOc1ccc2[nH]nc(NC(=O)[C@@H]3CCCNC3)c2c1 [cpd 231, hydrochloride]	nM	71
CNC1CCC(C(=O)Nc2n[nH]c3ccc(-c4c(Cl)cccc4Cl)cc23)CC1 (stereo not drawn) [compound 144, hydrochloride]	nM	110
N#Cc1ccc(C#N)c(-c2ccc3[nH]nc(NC(=O)[C@@H]4CCCNC4)c3c2)c1 [cpd 53, hydrochloride]	nM	30

Form field DC50, entry CC(C)CN1CCC(C(=O)Nc2n[nH]c3ccc(-c4c(Cl)cccc4Cl)cc23)CC1 : 136
